This listing pairs binders with measured IL-2, % of BMS, at 0.411522634 ug/mL.
Target: T1, human LAG3 expressed on cells (human, UniProt P18627 23-525)
T1 sequence (looked up): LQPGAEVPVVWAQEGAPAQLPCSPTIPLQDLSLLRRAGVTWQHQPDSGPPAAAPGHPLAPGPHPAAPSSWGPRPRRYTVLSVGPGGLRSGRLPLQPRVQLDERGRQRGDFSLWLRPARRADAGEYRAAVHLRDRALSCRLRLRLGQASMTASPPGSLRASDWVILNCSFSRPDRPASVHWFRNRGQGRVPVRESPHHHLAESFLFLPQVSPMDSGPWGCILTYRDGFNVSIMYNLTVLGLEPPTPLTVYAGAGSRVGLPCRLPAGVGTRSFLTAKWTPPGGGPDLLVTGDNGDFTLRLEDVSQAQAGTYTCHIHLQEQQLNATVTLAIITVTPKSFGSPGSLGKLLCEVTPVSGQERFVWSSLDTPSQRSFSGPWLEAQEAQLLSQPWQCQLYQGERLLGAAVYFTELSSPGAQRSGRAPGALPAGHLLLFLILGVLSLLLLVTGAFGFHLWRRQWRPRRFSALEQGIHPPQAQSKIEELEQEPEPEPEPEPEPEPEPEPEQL
Experiment: cell-based or functional assay
Write the answer as a number in %, unit excluded.

Req: Record request: IL-2, % of BMS, at 0.411522634 ug/mL value, item sdAb No. 24 (VHH, Fc of the tested form not described; also called sdAb 24; not shown: Fc part implied by anti-human Fc capture) VHH: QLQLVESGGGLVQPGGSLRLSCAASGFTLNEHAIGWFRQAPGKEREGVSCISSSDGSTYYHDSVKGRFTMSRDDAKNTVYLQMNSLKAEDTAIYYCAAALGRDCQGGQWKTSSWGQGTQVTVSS
Resp: 1.26

Req: Fill in the blank: the reported IL-2, % of BMS, at 0.411522634 ug/mL of sdAb No. 1 (VHH, the tested form was captured by anti-human Fc, its Fc is not described; also called sdAb 1; not shown: Fc part implied by anti-human Fc capture) VHH: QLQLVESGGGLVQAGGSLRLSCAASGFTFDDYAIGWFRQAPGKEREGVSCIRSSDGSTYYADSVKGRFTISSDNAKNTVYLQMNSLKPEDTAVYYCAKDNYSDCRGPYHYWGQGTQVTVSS is ____.
Resp: 14.8

Req: May I ask what IL-2, % of BMS, at 0.411522634 ug/mL has been recorded for sdAb No. 73 (VHH, Fc not described; also called sdAb 73; not shown: Fc part implied by anti-human Fc capture) VHH: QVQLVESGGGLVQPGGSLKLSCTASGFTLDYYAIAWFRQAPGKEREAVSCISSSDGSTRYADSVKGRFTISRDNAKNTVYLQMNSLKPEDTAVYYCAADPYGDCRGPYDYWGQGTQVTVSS ?
Resp: 15.5

Req: Entry under review: sdAb No. 18 (VHH, Fc of the tested form not described; also called sdAb 18; not shown: Fc part implied by anti-human Fc capture) VHH: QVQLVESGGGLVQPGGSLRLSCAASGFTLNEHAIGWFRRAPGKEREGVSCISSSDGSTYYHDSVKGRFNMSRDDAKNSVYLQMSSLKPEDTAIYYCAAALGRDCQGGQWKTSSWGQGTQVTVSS . Reported IL-2, % of BMS, at 0.411522634 ug/mL?
Resp: 6.53

Req: Fill blank: measured IL-2, % of BMS, at 0.411522634 ug/mL of the binder sdAb No. 25 (VHH, Fc of the tested form not described; also called sdAb 25; sdAb #25; not shown: Fc part implied by anti-human Fc capture and anti-human IgG Fc detection) VHH: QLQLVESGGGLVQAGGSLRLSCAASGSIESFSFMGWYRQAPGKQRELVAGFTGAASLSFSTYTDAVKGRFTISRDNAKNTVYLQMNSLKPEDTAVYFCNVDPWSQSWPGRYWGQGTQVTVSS is ____.
Resp: 9.2

Req: IL-2, % of BMS, at 0.411522634 ug/mL lookup needed for sdAb No. 20 (VHH, Fc of the tested form not described; also called sdAb 20; not shown: Fc part implied by anti-human Fc capture) VHH: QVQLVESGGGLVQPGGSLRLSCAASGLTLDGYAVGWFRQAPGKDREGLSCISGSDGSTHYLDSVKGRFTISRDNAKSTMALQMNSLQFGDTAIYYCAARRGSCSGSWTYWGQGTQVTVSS , thanks.
Resp: 14.7

Req: Which IL-2, % of BMS, at 0.411522634 ug/mL is listed for sdAb No. 21 (VHH, Fc of the tested form not described; also called sdAb 21; not shown: Fc part implied by anti-human Fc capture) VHH: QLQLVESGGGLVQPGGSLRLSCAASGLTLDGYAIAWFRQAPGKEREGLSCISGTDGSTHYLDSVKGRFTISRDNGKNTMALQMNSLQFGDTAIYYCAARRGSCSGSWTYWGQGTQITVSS ?
Resp: 24.6

Req: Please look up its IL-2, % of BMS, at 0.411522634 ug/mL: sdAb No. 17 (VHH, Fc of the tested form not described; also called sdAb 17; not shown: Fc part implied by anti-human Fc capture and anti-human IgG1 Fc detection) VHH: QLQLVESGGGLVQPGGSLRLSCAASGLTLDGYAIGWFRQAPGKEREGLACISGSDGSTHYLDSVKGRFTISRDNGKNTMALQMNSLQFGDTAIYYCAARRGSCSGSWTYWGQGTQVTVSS
Resp: 22.3

Req: Recorded IL-2, % of BMS, at 0.411522634 ug/mL for sdAb No. 27 (VHH, Fc of the tested form not described; also called sdAb 27; not shown: Fc part implied by anti-human Fc capture and anti-human IgG Fc detection) VHH: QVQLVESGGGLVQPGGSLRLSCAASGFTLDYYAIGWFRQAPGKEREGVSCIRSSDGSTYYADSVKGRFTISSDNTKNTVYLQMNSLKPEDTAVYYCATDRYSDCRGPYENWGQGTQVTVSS , please?
Resp: 27.3
